- study.system: T1, human PSMA (Prostate Specific Membrane Antigen, Glutamate Carboxypeptidase II) on cells (human, UniProt Q04609 1-750)
- T1 construct: whole, on cells; the cell line is named under assay; also called cell surface expressed PSMA; FOLH1
- T1 sequence (Q04609 whole entry): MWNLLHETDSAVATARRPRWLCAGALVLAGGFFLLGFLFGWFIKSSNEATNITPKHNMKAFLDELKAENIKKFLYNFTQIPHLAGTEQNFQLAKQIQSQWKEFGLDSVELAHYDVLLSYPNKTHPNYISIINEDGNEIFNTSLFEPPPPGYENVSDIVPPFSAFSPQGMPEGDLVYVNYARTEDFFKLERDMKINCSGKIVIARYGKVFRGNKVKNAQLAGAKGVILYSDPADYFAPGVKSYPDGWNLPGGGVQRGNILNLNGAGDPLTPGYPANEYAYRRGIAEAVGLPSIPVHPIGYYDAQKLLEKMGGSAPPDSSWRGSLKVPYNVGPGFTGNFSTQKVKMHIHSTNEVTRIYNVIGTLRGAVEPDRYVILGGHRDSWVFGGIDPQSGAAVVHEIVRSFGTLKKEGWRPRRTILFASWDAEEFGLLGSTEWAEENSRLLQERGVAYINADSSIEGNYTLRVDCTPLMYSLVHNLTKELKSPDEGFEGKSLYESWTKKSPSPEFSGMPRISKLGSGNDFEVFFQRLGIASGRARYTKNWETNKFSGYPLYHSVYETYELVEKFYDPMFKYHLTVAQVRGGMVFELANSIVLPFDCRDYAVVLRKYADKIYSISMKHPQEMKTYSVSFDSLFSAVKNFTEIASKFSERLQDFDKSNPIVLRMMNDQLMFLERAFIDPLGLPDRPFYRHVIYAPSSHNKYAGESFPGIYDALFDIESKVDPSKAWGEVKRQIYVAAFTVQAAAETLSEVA
- test.method.notes: flow cytometry on LNCaP cells
reported.metric: fold over the background MFI signal (fold over background)
Express the result in fold over background but write the number alone.

Known fold over the background MFI signal results, listed for orientation:
binder	reported.metric	unit.name	quantitative.result
anti-PSMA heavy chain antibody clone ID 325748 (antibody, V domains shown, heavy chain-only antibody (UniAb), no light chain) VH: QVQLVESGGGVVQPGRSLRLSCAASGFSFSSYGMHWVRQAPGKGLEGVAVIWYDGSNRYYADSVKGRFTISRDNSKNTLYLQMNSLRAEDTAVYYCAREPRIGYYYESSGYYSLDYRGQGTLVTVSS	fold over the background MFI signal	fold over background	193
anti-PSMA heavy chain antibody clone ID 345505 (antibody, V domains shown, heavy chain-only antibody (UniAb), no light chain) VH: QVQLVESGGGVVQPGRSLRLSCAASGFTFISYGMHWVRQAPGKGLEGVAVIWYDGSNRYYADSVKGRFTISRDNSKNTLYLQMNSLRAEDTAVYYCAREPRIGYYYESSGYYSLDYRGQGTLVTVSS	fold over the background MFI signal	fold over background	59
anti-PSMA heavy chain antibody clone ID 345509 (antibody, V domains shown, heavy chain-only antibody (UniAb), no light chain) VH: QVQLVESGGGLVQPGGSLRLSCAASGFSFSSYGMHWVRQAPGKGLEGVAVIWYDGSNKYYADSVKGRFTISRDNSKNTMYLQMNSLRAEDTAVYYCAREPRIGYYYESSGYYSLDYRGQGTLVTVSS	fold over the background MFI signal	fold over background	37
anti-PSMA heavy chain antibody clone ID 345480 (antibody, V domains shown, heavy chain-only antibody (UniAb), no light chain) VH: QVQLVESGGGVVQPGRSLRLSCAASGFSFSSYGMHWVRQAPGKGLEWVAVIWYDGSNRYYADSVKGRFTISRDNSKNTLYLQMNSLRAEDTAVYYCAREPRIGYYYESSGYYSLDYRGQGTLVTVSS	fold over the background MFI signal	fold over background	47
anti-PSMA heavy chain antibody clone ID 325742 (antibody, V domains shown, heavy chain-only antibody (UniAb), no light chain) VH: QVQLVESGGGVVQPGRSLRLSCAASGFSFSSYGMHWVRQAPGKGLEWVAVIWYDGSNKYYADSVKGRFTISRDYSKNTLYLQMNSLRAEDTAVYYCAREPRIGYYYESSGYDSLDYRGQGTLVTVSS	fold over the background MFI signal	fold over background	200

Pending binder:
Fill in reported fold over the background MFI signal for this entry: anti-PSMA heavy chain antibody clone ID 345421 (antibody, V domains shown, heavy chain-only antibody (UniAb), no light chain) VH: QVQLVESVGGVVQPGRSLRLSCAASGFSFSSYGMHWVRQAPGKGLEGVAVIWYDGSNRYYADSVKGRFTISRDNSKNTLYLQMNSLRAEDTAVYYCAREPRIGYYYESSGYYSLDYRGQGTLVTVSS 22
